BTK (Homo sapiens, UniProt Q06187) IC50, compiled from various sources.
Sequence (Q06187 whole entry): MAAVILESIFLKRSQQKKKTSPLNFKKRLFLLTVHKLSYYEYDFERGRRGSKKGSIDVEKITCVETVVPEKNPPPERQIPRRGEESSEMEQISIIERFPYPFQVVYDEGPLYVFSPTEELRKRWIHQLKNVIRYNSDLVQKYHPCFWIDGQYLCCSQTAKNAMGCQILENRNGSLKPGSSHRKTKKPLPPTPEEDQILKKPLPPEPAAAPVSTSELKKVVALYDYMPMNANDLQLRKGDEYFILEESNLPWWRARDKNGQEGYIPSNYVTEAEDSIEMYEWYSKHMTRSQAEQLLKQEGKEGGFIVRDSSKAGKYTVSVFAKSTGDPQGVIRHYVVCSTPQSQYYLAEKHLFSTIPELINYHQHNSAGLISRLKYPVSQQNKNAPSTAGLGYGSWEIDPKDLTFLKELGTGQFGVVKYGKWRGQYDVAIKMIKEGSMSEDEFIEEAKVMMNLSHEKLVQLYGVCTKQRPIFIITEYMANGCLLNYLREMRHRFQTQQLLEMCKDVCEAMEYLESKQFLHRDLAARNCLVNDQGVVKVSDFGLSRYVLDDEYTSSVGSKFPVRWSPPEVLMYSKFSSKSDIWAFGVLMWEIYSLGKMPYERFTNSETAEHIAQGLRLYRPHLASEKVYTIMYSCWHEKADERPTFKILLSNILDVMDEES
Quantity Measured: IC50 (nM)

Compound	IC50, nM
Cc1ccnc(Oc2ccc(C(=O)c3c[nH]c4ncc5c(c34)NC3(CCOCC3)C(=O)N5C)c(Cl)c2)c1	40
C=CC(=O)N(C)CC#Cc1c(N)ncnc1-c1cc(F)cc(-n2ncc3cc(C(C)(C)C)cc(F)c3c2=O)c1C	44
COCC1(C)Nc2c(cnc3[nH]cc(C(=O)c4ccc(Oc5cc(C)ccn5)cc4F)c23)NC1=O (stereo not drawn)	34.8
C/C=C/C(=O)Nc1cc2cc(c1)Nc1nccc(n1)-c1cccc(c1)COC/C=C/CN(C)C2	1470
CN1CC[C@@]2(C1)Nc1c(cnc3[nH]cc(C(=O)c4ccc(Oc5ccccc5)cc4Cl)c13)NC2=O (single isomer, unassigned)	25.4
COC[C@]1(C)Nc2c(cnc3[nH]cc(C(=O)c4sccc4Cl)c23)NC1=O	20.1

(A) O=C(c1ccc(Oc2ccccc2)cc1Cl)c1c[nH]c2ncc3c(c12)N[C@]1(CCOC1)C(=O)N3 (single isomer, unassigned)
(B) O=C(c1ccc(Oc2ccccc2)cc1Cl)c1c[nH]c2nccc(NCCOCCO)c12
Query :: Field: entry with larger IC50 (options A / B ). // return label of chosen record
Result :: B

(P) CN1CCCC2(C1)Nc1c(cnc3[nH]cc(C(=O)c4ccc(Oc5ccccc5)cc4Cl)c13)NC2=O (stereo not drawn)
(Q) C=CC(=O)Nc1cc2cc(c1)Nc1nccc(n1)-c1cccc(c1)COC/C=C/COC2
Query :: Returns: the argument ( P or Q ) having the larger IC50. Give the label of your selection.
Result :: Q

* * *

pIC50: −log10 of the molar value.
Literature pIC50 values, system: BTK (Homo sapiens).

Solved cases (4 shown):
Smiles Representation	Experimental Result
CN(C)S(=O)(=O)c1c(F)c(F)c(F)c(F)c1C(=O)NCCn1nc(-c2ccc(Oc3ccccc3)cc2)c2c(N)ncnc21	> 6.00
C=CC(=O)N1CCC(c2nc(-c3ccc(Oc4ccccc4)cc3)c(C(N)=O)c3[nH]c(=O)[nH]c23)CC1	≥ 8.00
CS(=O)(=O)c1c(F)c(F)c(F)c(F)c1CNCCNc1ncnc2[nH]ccc12	> 6.00
C=CC(=O)N(C)CC#Cc1c(N)ncnc1-c1cc(F)cc(-n2ncc3cc(C4CC4)cc(F)c3c2=O)c1C	8.31

Now examine the next entry.
Query :: For BTK (Homo sapiens), provide pIC50 of C=CC(=O)N1CCC[C@H](c2nc(-c3ccc(Oc4ccccc4)cc3)c(C(N)=O)c3[nH]ccc23)C1 please.
Result :: ≥ 8.00
